Below is a list of entries, each paired with its recorded IC50 value.
# procedure summary: Cytotoxicity MTS assay in HepG2 cells
# Format: cell-based
# experimental setup: human
attribute measured: IC50 (µM)

• C[C@@H]1C[C@@H]([C@H](O)CC2CC(=O)NC(=O)C2)C(=O)[C@@H](C)C1 [cycloheximide, reference compound] = 1.5
• CCCCCc1ccc(-c2cn(C/C(C)=C/CP(=O)(OCOC(=O)OC(C)C)OCOC(=O)OC(C)C)nn2)cc1 [Compound 11c] = 51.8

* * *

# procedure summary: in vitro
# Format: cell-based
# experimental setup: human; PBM cells; read-out: MTS Cytotoxicity (IC50, μM) PBM
Below is a list of entries, each paired with its recorded IC50 value.
attribute measured: IC50 (µM)

• CCCCCCCCCCCCCCCCOCCCOP(=O)(C/C=C(\C)Cn1cc(-c2ccc(CCCCC)cc2)nn1)OCOC(=O)OC(C)C (centres unmarked) [Compound 15c] = 50.5
• C/C(=C\CP(=O)(OCOC(=O)OC(C)C)OCOC(=O)OC(C)C)Cn1cc(-c2ccc([N+](=O)[O-])cc2)nn1 [Compound 11l] = 23.5
• C/C(=C\CP(=O)(OCOC(=O)OC(C)C)OCOC(=O)OC(C)C)Cn1cc(CO)nn1 [Compound 11h] = 76.4
• CNC(=O)c1cn(C/C(C)=C/CP(=O)(OCOC(=O)OC(C)C)OCOC(=O)OC(C)C)nn1 [Compound 11p] = 78.3
• CCCCCCCC(=O)NCc1cn(C/C(C)=C/CP(=O)(OCOC(=O)OC(C)C)OCOC(=O)OC(C)C)nn1 [Compound 11k] = 51.5

FYI, the data here is from paper PMC7967160.
